# System: MDA-MB-231
# assayRemarks: Growth inhibition of human MDA-MB-231 cells by MTT assay
# Format: functional, cell-based
measurementKind: IC50 (µM)

The following compounds have reported results that may help.
CCOC(=O)/C(=C\c1ccc(B(O)O)cc1)C(=O)c1sc(Nc2ccccc2)nc1N(C)C ... 38
CCOC(=O)/C(=C\c1ccc(B(O)O)cc1)C(=O)c1sc(Nc2ccc(Cl)cc2)nc1N(C)C ... 34.9

1. CCOC(=O)/C(=C\c1ccc(B(O)O)cc1)C(=O)c1sc(Nc2ccc(F)cc2)nc1-c1ccccc1
2. COc1cccc2c1C(=O)c1c(O)c3c(c(O)c1C2=O)C[C@@](O)(C(=O)CO)C[C@@H]3O[C@H]1C[C@H](N)[C@H](O)[C@H](C)O1
3. CCOC(=O)/C(=C\c1ccc(B(O)O)cc1)C(=O)c1sc(Nc2ccc(OC)cc2)nc1N(C)C
Request: List these items ordered by IC50, big to small. I'd appreciate it if you listed the labels in the requested order.
Result: 3, 1, 2

Data origin, for the record: ChEMBL document CHEMBL4819109
